Reference source: ChEMBL document CHEMBL1146967

Experiment: Volume of distribution in monkey at 2 mg/kg, iv
Assay type: ADME, organism-based, Macaca mulatta
Set-up: dose 2 mg/kg, route intravenous
Conditions: rhesus monkey, in vivo, read-out: Vdss
OBSERVABLE: Vd (L/kg)

1) CC(C)(C(=O)O)c1ccc(-c2ccccc2)c(F)c1	0.3
